List of koff values.
# target-desc: T1, Human LRP6-Fc (R&D Systems), recombinant human LRP6 containing the complete extracellular domain (human, UniProt O75581 20-1370)
# T1 construct: Bought protein; also called hLRP6; Fc-antigen; not shown: Fc part of the bought fusion protein
# T1 sequence: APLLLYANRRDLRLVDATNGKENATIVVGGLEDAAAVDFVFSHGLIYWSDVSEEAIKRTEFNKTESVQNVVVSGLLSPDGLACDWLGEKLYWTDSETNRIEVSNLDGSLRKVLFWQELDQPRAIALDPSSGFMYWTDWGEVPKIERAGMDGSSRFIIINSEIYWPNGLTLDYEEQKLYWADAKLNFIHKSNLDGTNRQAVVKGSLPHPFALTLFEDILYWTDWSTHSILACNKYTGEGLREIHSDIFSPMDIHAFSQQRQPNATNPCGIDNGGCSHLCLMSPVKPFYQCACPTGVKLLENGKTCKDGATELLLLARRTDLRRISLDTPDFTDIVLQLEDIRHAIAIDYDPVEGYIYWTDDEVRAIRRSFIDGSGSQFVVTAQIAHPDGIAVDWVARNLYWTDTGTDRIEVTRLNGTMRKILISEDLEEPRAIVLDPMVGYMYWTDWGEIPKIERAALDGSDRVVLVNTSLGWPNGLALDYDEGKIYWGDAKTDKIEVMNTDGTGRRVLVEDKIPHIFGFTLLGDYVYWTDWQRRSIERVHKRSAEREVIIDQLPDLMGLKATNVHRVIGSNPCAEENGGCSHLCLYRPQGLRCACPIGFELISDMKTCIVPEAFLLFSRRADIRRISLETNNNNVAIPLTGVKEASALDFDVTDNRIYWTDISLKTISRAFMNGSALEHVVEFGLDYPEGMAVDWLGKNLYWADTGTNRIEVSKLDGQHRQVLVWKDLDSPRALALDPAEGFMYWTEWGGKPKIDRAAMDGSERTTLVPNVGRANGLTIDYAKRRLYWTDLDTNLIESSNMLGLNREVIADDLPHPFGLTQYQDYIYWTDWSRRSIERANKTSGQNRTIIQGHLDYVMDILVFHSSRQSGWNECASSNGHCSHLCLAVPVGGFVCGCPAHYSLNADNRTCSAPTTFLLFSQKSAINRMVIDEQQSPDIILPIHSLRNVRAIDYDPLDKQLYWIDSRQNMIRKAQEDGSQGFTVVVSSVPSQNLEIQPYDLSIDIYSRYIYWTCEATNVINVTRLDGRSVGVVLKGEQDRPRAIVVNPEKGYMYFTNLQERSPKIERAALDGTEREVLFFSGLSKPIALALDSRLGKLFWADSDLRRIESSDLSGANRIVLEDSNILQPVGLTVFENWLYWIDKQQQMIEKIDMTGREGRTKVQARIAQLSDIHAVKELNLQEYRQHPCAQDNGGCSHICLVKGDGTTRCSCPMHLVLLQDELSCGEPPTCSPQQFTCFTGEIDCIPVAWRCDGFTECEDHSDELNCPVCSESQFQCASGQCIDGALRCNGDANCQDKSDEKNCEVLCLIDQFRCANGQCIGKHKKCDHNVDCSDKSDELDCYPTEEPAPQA
# run-description: SPR (BIAcore), mAb captured on anti-mouse chip, Fc-antigen injected, 1:1 model
Write the number in s⁻¹ without appending the unit.

Example cases with answers are listed next.
anti-LRP6 monoclonal antibody 421.1 (antibody, V domains shown, Murine hybridoma mAb, protein G purified; also called VH6/VL6) VH: QVQLQQSGPELVKPGASVRISCKASGYTFTTYYIHWLKQRPGQGLEWIGWIFPGNVNTKYNAKFKGKATLTADKSSSTAYMQLSSLTSEDSAVYFCAREELQYYFDYWGQGSTLTVSS VL: QIVLTQSPAIMSASPGEKVTISCSANSSVRFMFWYQQKPGSSPKPLIYRTSNLASGVPARFSGCGSGTSYSLTISSMEAEDAATYYCQQYHSYPWTFGGGTKLEI ... 0.000114
anti-LRP6 monoclonal antibody 1213.2 (antibody, V domains shown, Murine hybridoma mAb, protein G purified; also called VH17/VL17) VH: DVNLVESGGGLVKLGGSLKLSCAASGFTFSSFYMSWVRQTPEKRLDLVATINTNGGSTYYSDTVKGRFTISRDNAKNTLYLQMNSLKSEDTALFYCVRQPYYGGTMDYWGQGTSVTVSS VL: DIVLTQSPATLSVTPGDRVSLSCRASQSINNNLHWYQQKSHESPRLLIKYASQSISGIPSRFSGSGSGTDFTLSINSVETEDFGMYFCQQTNNWPLTFGAGTKLEL ... 6.3e-05
anti-LRP6 monoclonal antibody 77.2 (antibody, V domains shown, Murine hybridoma mAb, protein G purified; also called mAb 77.2; VH1/VL1) VH: QVQLQQSGAELAKPGASVKMSCKASGYTFTSYWMHWVKQRPGQGLEWIGYINPSTGYTEYNQNFRDKATLTADKSSSTANMQLSSLTSEDSAVYYCARTAQYYGSPRGYYAMDSWGQGTSVTVSS VL: DIVMTQAAFSNPVTLGTSASISCRSSKSLLHSNGITYLCWFLQKPGQSPQLLIYLMSNLASGVPDRFSSSGSGTDFTLRISRVEAEDVGVYFCAQNLDLPWTFGGGTKLEI ... 3.5e-05
anti-LRP6 monoclonal antibody 1115.3 (antibody, V domains shown, Murine hybridoma mAb, protein G purified; also called VH16/VL16) VH: DVKLVESGGGLVKLGGSLRLSCAASGFSFSTSYMSWVRQTPEKRLELVAAINLNGGSTYYSDTVKGRFTISRDNAKNTLYLQMSSLKSEDTAFYYCASELAGYGTPFAYWGQGTLVTVSA VL: DIVLTQSPATLSVTPGDSVSLSCKASQSISNNLHWYQQKSHESPRLLIKYTSQSISGIPSRFSGSGSGTDFTLTINNVETEDFGMYFCQQSNSWPLTFGAGTKLEV ... 5.34e-05
anti-LRP6 monoclonal antibody 135.16 (antibody, V domains shown, Murine hybridoma mAb, protein G purified; also called mAb135.16) VH: QVQLQQSGAELVKPGASVKMSCKAFGYTFTSYPIEWMKQNHGKSLEWIGNFHPYNDNTKYNEKFKGKAKLTVEKSSSTVYLELSRSTSDDSAVYYCARGYSGNYFSAMDYWGQGTSVTVSS VL: DIVMTQSQKFMSTSVGDRVSITCKASQNVRNDVAWYQQKPGQSPKSLIYLASNRHTGVPDRFTGSGSGTDFTLTISNVQSEDLADYFCLQHWNYPYTFGGGTKLEIKR ... 1.9e-05
anti-LRP6 monoclonal antibody 931.1 (antibody, V domains shown, Murine hybridoma mAb, protein G purified; also called VH13/VL13) VH: DVNLVESGGGLVKLGGSLKLSCAASGFTFSSFYMSWVRQTPEKRLDLVATINTNGGSTYYSDTVKGRFTISRDNAKNTLYLQMNSLKSEDTALFYCVRQPYYGGTMDYWGQGTSVTVSS VL: DIVLTQSPATLSVTPGDRVSLSCRASQSINNNLHWYQQKSHESPRLLIKYASQSISGIPSRFSGSGSGTDFTLSINSVETEDFGMYFCQQTNNWPLTFGAGTKLEL ... 6.3e-05

Consider the binder anti-LRP6 monoclonal antibody 1903.1 (antibody, V domains shown, Murine hybridoma mAb, protein G purified; also called VH23/VL23) VH: DVNLVESGGGLVKLGGSLKLSCAASGFTFSRFYMSWVRQTPEKRLDLVAAINTNGGSTYYSDTVKGRFTISRDNAKNTLYLQMSSLKSEDTALFYCARQPYYGGPMEFWGQGTSVTVSS VL: DIVMTQSQKFMSTSVGDRVSVTCKASQNVGTNVAWYQQKPGQSPKALIYSASYRYSGVPDRFTGSGSGSDFTLTISNVQSEDLAEYFCQQYNSYPLTFGAGTKLEL and give its measured koff.
9.4e-05

Consider the binder anti-LRP6 monoclonal antibody 606.4 (antibody, V domains shown, Murine hybridoma mAb, protein G purified; also called VH9/VL9) VH: DVKLVESGGGLVKVGGSLKLSCAASGFTFSSYYMSWVRQTPEKRLELVAVINSNGGSTYYSETVKGRFTISRDNAKNTLYLQMSSLKSEDTALYYCSRQPYYGNPFDYWGQGTTLTVSS VL: DIVLTQSPATLSVTPGDSVSLSCRASQSISNNLHWYQQKSHESPRLLIKYVSQSISGIPSRFSGSGSGTDFTLSINSVETEDFGMYFCQQSNNWPLTFGAGTKLEL and give its measured koff.
5.7e-05

Consider the binder anti-LRP6 monoclonal antibody 213.7 (antibody, V domains shown, Murine hybridoma mAb, protein G purified; also called VH3/VL3) VH: DVKLVESGGGLVKVGGSLKLSCAASGFTFSSYYMSWVRQTPEKRLELVAVINTNGGSTYYSDTVKGRFTISRDNAKNTLYLQMSSLKSEDTALYYCSRQPYYGNPFDYWGQGTTLTVSS VL: DIVLTQSPATLSVTPGDSVSLSCRASQSISNNLHWYQQKSHESPRLLIKYVSQSISGIPSRFSGSGSGTDFTLSINSVETEDFGMYFCQQSNNWPLTFGAGTKLEL and give its measured koff.
9.6e-05

Consider the binder anti-LRP6 monoclonal antibody 1253.12 (antibody, V domains shown, Murine hybridoma mAb, protein G purified; also called VH18/VL18) VH: QVQLQQSGPELVMPGASVRISCKASGYTFTNYYLHWVKQRPGQGLEWIGWIYPGNVNTKYNEKFKGKASLTADKSSSTAYMQLSSLTSEDSAVYFCAREGLQYYFDYWAQGTTLTVSS VL: QIVLTQSPAIMSASPGEKVTISCSANSSVRYMFWYQQKPGSFPKPWIYRTSNLASGVPARFSGSGSGTSYSLTISSMEAEDVATYYCQQYHSYPWTFGGGTKLEI and give its measured koff.
7.3e-05

From: patent US20140220040A1
